All values here come from paper PMC5216056.

So I've got a bunch of compounds here, and I need their pERK-cAMP ΔΔlogR values.
- target_of_assay: hCB2R (Homo sapiens)
- Sequence (P34972 whole entry): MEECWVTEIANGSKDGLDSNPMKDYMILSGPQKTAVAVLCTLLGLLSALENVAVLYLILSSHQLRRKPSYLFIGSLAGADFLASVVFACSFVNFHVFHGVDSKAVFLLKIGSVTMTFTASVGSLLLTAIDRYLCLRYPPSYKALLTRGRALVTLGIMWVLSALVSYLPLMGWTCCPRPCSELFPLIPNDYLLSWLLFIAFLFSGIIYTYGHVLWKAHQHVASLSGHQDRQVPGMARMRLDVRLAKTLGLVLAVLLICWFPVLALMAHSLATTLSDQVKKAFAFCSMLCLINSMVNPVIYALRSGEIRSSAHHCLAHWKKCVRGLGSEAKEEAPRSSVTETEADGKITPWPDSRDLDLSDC
- Set-up: expressed in transfected cells; host or cells: Flp-In-293 (Invitrogen #R750-07), pcDNA5/FRT
- measurement_parameters: hCB2R

### Prompt Give the reported pERK-cAMP ΔΔlogR for `CCCCCCC(C)(C)c1cc(OC)c([C@@H]2C=C(CO)[C@@H]3C[C@H]2C3(C)C)c(OC)c1` (system: hCB2R (Homo sapiens)).
### Response 0.73 ± 0.27

### Prompt Give the reported pERK-cAMP ΔΔlogR for `CCCCC/C=C\C/C=C\C/C=C\C/C=C\CCCC(=O)OC(CO)CO` (system: hCB2R (Homo sapiens)).
### Response 1.05 ± 0.31

### Prompt Give the reported pERK-cAMP ΔΔlogR for `CCCCCCC(C)(C)c1cc(OC)c(C2=C[C@H]3CC[C@]2(CO)C3(C)C)c(OC)c1` (system: hCB2R (Homo sapiens)).
### Response 0.25 ± 0.28

### Prompt Give the reported pERK-cAMP ΔΔlogR for CCCCC/C=C\C/C=C\C/C=C\C/C=C\CCCC(=O)NCCO [Anandamide, N-arachidonoylethanolamine] (system: hCB2R (Homo sapiens)).
### Response 1.75 ± 0.37
